The values you see were collected from PubChem BioAssay (EPA / NIEHS).

protocol notes: BSK_SAg_SRB: Viability Assessment in the BioMAP Diversity Plus: SAg Assay (AID 2283096);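 further: cells read one day after compound addition; hits may be either gain or loss of signal compared with DMSO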
study conditions: primary human HUVEC with PBMC
Activity calls are given as the source filed them. How the source made its calls: active means hit-call score of the fitted dose curve at least 0.9, where 1 is the maximum; inactive means score below 0.9.
Select the correct class. Options are active, inactive and nothing else.

Answered cases to consult:
CC(COc1ccc(Oc2ccccc2)cc1)Oc1ccccn1 (configuration not stated) :: active
CCOP(=S)(OCC)Oc1cc(C)nc(C(C)C)n1 :: inactive

Let us examine a further case.
Ask: What outcome does the record of this test show for CCNc1nc(Cl)nc(NC(C)(C)C#N)n1 ?
Reply: inactive

###

Read-out: xenobiotic metabolism (CYP1A1), CYP1A1 (gene 1543)
protocol notes: CLD_CYP1A1_24hr: CellzDirect (CLD) Gene Expression Assay for xenobiotic metabolism (CYP1A1) at 24 hours (AID 2283673);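 further: CYP1A1 mRNA level by quantitative nuclease protection with chemiluminescence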
Inconclusive results are not listed. The source made the active and inactive calls. How the source made its calls: active means hit-call score of the fitted dose curve at least 0.9, where 1 is the maximum; inconclusive means response in the unintended direction; inactive means score below 0.9.
quantity name: AC50

Take a look at these entries with their results.
CCC(CC)Nc1c([N+](=O)[O-])cc(C)c(C)c1[N+](=O)[O-] :: 20 µM (active)
CC(C1CC1)C(O)(Cn1cncn1)c1ccc(Cl)cc1 (stereo not given) :: 11.9 µM (active)
CSC1=N[C@@](C)(c2ccccc2)C(=O)N1Nc1ccccc1 :: 3 µM (active)
CC(COc1ccc(Oc2ccccc2)cc1)Oc1ccccn1 (stereo not given) :: inactive

Ask: Looking for the measured AC50 of CCCOc1nn(C(=O)NS(=O)(=O)c2ccccc2C(=O)OC)c(=O)n1C , can you help?
Reply: inactive

Ask: Looking for the measured AC50 of COc1cccc(C(=O)NN(C(=O)c2cc(C)cc(C)c2)C(C)(C)C)c1C , can you help?
Reply: 36.4 µM (active)

Ask: Looking for the measured AC50 of CCOP(=O)(SC(C)CC)N1CCSC1=O (stereo not given) , can you help?
Reply: inactive

Ask: Looking for the measured AC50 of Nc1nc(N)nc(NC2CC2)n1 , can you help?
Reply: inactive

Ask: Looking for the measured AC50 of CCCSP(=O)(OCC)Oc1ccc(Br)cc1Cl (stereo not given) , can you help?
Reply: 20 µM (active)

Ask: Looking for the measured AC50 of CC(Oc1cccc(Cl)c1)C(=O)O (stereo not given) , can you help?
Reply: inactive

###

target or system: human Phosphodiesterase 4A1 (PDE4A1), PDE4A (gene 5141) (UniProt P27815)
Sequence (P27815 whole entry, looked up): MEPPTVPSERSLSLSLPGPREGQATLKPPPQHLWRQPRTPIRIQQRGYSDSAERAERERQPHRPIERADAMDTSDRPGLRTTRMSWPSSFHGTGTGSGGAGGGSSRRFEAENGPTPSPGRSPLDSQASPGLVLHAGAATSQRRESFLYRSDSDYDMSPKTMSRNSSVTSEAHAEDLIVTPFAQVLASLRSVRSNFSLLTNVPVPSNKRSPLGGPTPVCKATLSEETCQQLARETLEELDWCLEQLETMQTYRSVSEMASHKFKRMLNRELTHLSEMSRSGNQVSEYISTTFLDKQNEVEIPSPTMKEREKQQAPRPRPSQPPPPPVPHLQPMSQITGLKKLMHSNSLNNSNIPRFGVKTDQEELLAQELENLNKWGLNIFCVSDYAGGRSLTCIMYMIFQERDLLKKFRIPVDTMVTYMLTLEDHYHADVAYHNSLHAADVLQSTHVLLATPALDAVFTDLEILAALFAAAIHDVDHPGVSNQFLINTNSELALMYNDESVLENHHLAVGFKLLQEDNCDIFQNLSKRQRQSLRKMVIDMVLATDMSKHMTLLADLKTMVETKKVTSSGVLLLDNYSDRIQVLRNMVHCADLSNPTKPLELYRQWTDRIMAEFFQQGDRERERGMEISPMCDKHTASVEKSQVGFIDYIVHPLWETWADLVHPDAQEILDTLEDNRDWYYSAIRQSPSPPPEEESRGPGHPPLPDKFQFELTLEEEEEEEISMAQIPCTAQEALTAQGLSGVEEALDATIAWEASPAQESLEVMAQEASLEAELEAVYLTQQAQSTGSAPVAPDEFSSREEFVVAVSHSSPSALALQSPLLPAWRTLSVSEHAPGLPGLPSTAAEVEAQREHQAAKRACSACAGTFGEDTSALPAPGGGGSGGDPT
protocol notes: NVS_ENZ_hPDE4A1: NovaScreen (NVS) Enzymatic Assay for human Phosphodiesterase 4A1 (PDE4A1) (AID 2283191)
Records with an inconclusive call do not appear. Activity calls are given as the source filed them. The calls were made as follows: active = hit-call score of the fitted dose curve at least 0.9, where 1 is the maximum; inconclusive = response in the unintended direction; inactive = score below 0.9.
quantity name: AC50

CSc1nc(NC(C)C)nc(NC(C)C)n1 :: 3.43 µM (active)
Cc1cc(C2CC2)nc(Nc2ccccc2)n1 :: inactive
CCOP(=S)(OCC)Oc1ccc([N+](=O)[O-])cc1 :: inactive
C[Si](Cn1cncn1)(c1ccc(F)cc1)c1ccc(F)cc1 :: 7.33 µM (active)

###

protocol notes: CCTE_Shafer_MEA_dev_AB: CCTE's Alamar Blue Assay for Cytotoxicity in the Neural Network Formation Assay, Shafer Lab (AID 2284083);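 further: resazurin reduction fluorescence as viability of cultured neurons; twelve days of exposure from plating with re-dosing on DIV 5 and 9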
Results filed as inconclusive are left out. Activity calls are given as the source filed them. Rule for the calls: active = hit-call score of the fitted dose curve at least 0.9, where 1 is the maximum; inconclusive = response in the unintended direction; inactive = score below 0.9.
Select the correct class. Options are Y (active), N (inactive) and nothing else.

Ask: What outcome does the record of this test show for CC(C)[C@H](C(=O)O[C@H](C#N)c1cccc(Oc2ccccc2)c1)c1ccc(Cl)cc1 ?
Reply: Y

Ask: What outcome does the record of this test show for CCOP(=S)(OCC)Oc1ccc([N+](=O)[O-])cc1 ?
Reply: N

Ask: What outcome does the record of this test show for CCOP(=O)(OCC)Oc1cc(C)nc(C(C)C)n1 ?
Reply: N

Ask: What outcome does the record of this test show for CC(C)N(C(=O)SCC(Cl)=C(Cl)Cl)C(C)C ?
Reply: Y

Ask: What outcome does the record of this test show for CN(C)[C@@H]1C(=O)C(C(N)=O)=C(O)[C@@]2(O)C(=O)C3=C(O)c4c(O)cccc4[C@@](C)(O)[C@H]3[C@H](O)[C@@H]12 ?
Reply: Y
